# test-description: modulators of CIT2-GFP expression in yeast, confirmation, S. cerevisiae, GFP fusion, cherry picks, mother/daughter gates (AID 2274)
# condition-set: S. cerevisiae CIT2-GFP strain, flow cytometry, 3 h; measured here: daughter cell gate; at 10 µM; stronger effect = higher value
Give measured GFP response, % of DMSO for each item. Keep answers brief.
Numeric only. Scale: %

## Task Using the record for `Cc1cc(O)c(C(=O)/C=C/c2ccccc2Br)c(=O)o1` , report its GFP response, % of DMSO.
## Result 98.1

## Task Using the record for `O=C(NNC(=O)C1CCCCC1)C(=O)NC1CCCCC1` , report its GFP response, % of DMSO.
## Result 102

## Task Using the record for `CC1=CC(=O)C(C(C)C)=C/C1=N/OS(=O)(=O)c1ccccc1` , report its GFP response, % of DMSO.
## Result 111

## Task Using the record for `CC(C)c1nnc(NC(=O)c2nc(S(=O)(=O)Cc3ccccc3F)ncc2Cl)s1` , report its GFP response, % of DMSO.
## Result 102

## Task Using the record for O=C1Nc2ccccc2C(=O)C1(Cl)Cc1ccccc1 (stereo not given) , report its GFP response, % of DMSO.
## Result 95.8

## Task Using the record for `COC(=O)c1ccccc1Sc1ncnc2onc(C)c12` , report its GFP response, % of DMSO.
## Result 106

## Task Using the record for `NC(=O)c1ccc(Oc2ccc(-c3nnco3)cc2)c([N+](=O)[O-])c1` , report its GFP response, % of DMSO.
## Result 105

## Task Using the record for `O=C(Nc1nc(-c2ccccc2)cs1)c1ccc(Br)o1` , report its GFP response, % of DMSO.
## Result 105

## Task Using the record for `COc1ccc(C(=O)/C=C/c2ccccc2C(F)(F)F)cc1` , report its GFP response, % of DMSO.
## Result 106

## Task Using the record for `N#C/C(=C\c1c(N2CCCCC2)nc2ccccn2c1=O)C(=O)NCc1ccco1` , report its GFP response, % of DMSO.
## Result 100

## Task Using the record for CCc1ccc2c(c1)C1(NN=C(c3ccccc3)S1)C(=O)N2 (stereo not given) , report its GFP response, % of DMSO.
## Result 99.2

## Task Using the record for `COc1ccc(NC(=O)C2CCN(S(=O)(=O)c3ccc(OC)c(OC)c3)CC2)c(OC)c1` , report its GFP response, % of DMSO.
## Result 97.4

## Task Using the record for COc1ccc(OC)c(C2CC(c3c(-c4ccccc4)c4cc(Cl)ccc4[nH]c3=O)=NN2S(C)(=O)=O)c1 (stereo not given) , report its GFP response, % of DMSO.
## Result 96.5

## Task Using the record for `COc1ccc(N2C(=O)C(Cl)=C(Nc3ccccc3OC)C2=O)cc1` , report its GFP response, % of DMSO.
## Result 97.4

## Task Using the record for `COCc1nnc(NC(=O)c2ccc(S(=O)(=O)N(C)c3ccccc3)cc2)o1` , report its GFP response, % of DMSO.
## Result 97.2

## Task Using the record for `CC(C)c1ccc(C(=O)N/N=C/c2cccc(Cl)c2Cl)cc1` , report its GFP response, % of DMSO.
## Result 83

## Task Using the record for `O=C(Nc1ccccc1)c1ccccc1O` , report its GFP response, % of DMSO.
## Result 95.8

## Task Using the record for `CC(=O)Nc1c(-c2ccc(F)cc2)nc2ccccn12` , report its GFP response, % of DMSO.
## Result 114

## Task Using the record for `CSc1ccc(/C=N/NC(=O)c2ccc(O)cc2)cc1` , report its GFP response, % of DMSO.
## Result 103

## Task Using the record for Cc1ccc(CC2CC(=O)N(Cc3ccco3)C2=O)cc1 (stereo not given) , report its GFP response, % of DMSO.
## Result 105

## Task Using the record for `COC(=O)c1cc(S(=O)(=O)Nc2nn(C)c3ccccc23)oc1C` , report its GFP response, % of DMSO.
## Result 101

## Task Using the record for `COC(=O)c1sc(-c2ccc(C(C)(C)C)cc2)cc1NC(=O)CCC(=O)O` , report its GFP response, % of DMSO.
## Result 96.5

## Task Using the record for `Cc1ccccc1OCC(=O)NNC(=S)NC(=O)c1ccco1` , report its GFP response, % of DMSO.
## Result 122

## Task Using the record for `Cc1ccc(N2C3=C(C(=O)CC(C)(C)C3)C(c3cn(C)nc3C)C3=C2CC(C)(C)CC3=O)cc1` , report its GFP response, % of DMSO.
## Result 132

## Task Using the record for `Cc1cc(Cl)ccc1N=c1ssnc1Cl` , report its GFP response, % of DMSO.
## Result 103

## Task Using the record for `Cc1c(C(=O)NCCSCc2cccc(C(F)(F)F)c2)cnn1-c1ccc(F)cc1` , report its GFP response, % of DMSO.
## Result 102

## Task Using the record for `Cc1c(Cc2ccccc2)c(NCCN(C)C)n2c(nc3ccccc32)c1C#N` , report its GFP response, % of DMSO.
## Result 135

## Task Using the record for `CCOc1ccc(NC2=C(Cl)C(=O)N(Cc3ccccc3)C2=O)cc1` , report its GFP response, % of DMSO.
## Result 98.3

## Task Using the record for COc1ccccc1N1C(=O)CC(Sc2nccc(C)n2)C1=O (stereo not given) , report its GFP response, % of DMSO.
## Result 93.8

## Task Using the record for `O=Nc1c(O)c2ccccc2c2ccccc12` , report its GFP response, % of DMSO.
## Result 106

## Task Using the record for `CCN(Cc1ccccc1)S(=O)(=O)c1ccc(C(=O)Nc2nnc(C)o2)cc1` , report its GFP response, % of DMSO.
## Result 102

## Task Using the record for `CSC1=NC(=O)/C(=C/c2ccc(SC)cc2)S1` , report its GFP response, % of DMSO.
## Result 78.1

## Task Using the record for `O=C(/C=C/c1ccc(F)cc1)c1ccccc1Br` , report its GFP response, % of DMSO.
## Result 93.7

## Task Using the record for `Oc1ccc(Br)cc1/C=N/Nc1ccccn1` , report its GFP response, % of DMSO.
## Result 113

## Task Using the record for Cc1ccc(NC(=S)N2CCSC2c2cccs2)cc1 (stereo not given) , report its GFP response, % of DMSO.
## Result 99.3

## Task Using the record for `CCCCOc1c(Br)cc(/C=C2\N=C(C)OC2=O)cc1OCC` , report its GFP response, % of DMSO.
## Result 99.1

## Task Using the record for `C/C(CCC12CC3CC(CC(C3)C1)C2)=N\NC(N)=S` , report its GFP response, % of DMSO.
## Result 88.1

## Task Using the record for `COc1cc(NC(=O)c2cc3ccccc3o2)ccc1NC(=O)c1ccco1` , report its GFP response, % of DMSO.
## Result 105

## Task Using the record for `CCc1ccc(C(=O)COC(=O)c2n[nH]c3ccccc23)cc1` , report its GFP response, % of DMSO.
## Result 97.6

## Task Using the record for `CCc1noc(C)c1C(=O)Nc1nc(-c2ccc(Cl)cc2Cl)cs1` , report its GFP response, % of DMSO.
## Result 97.6

## Task Using the record for `O=C(Nc1cc(Sc2ccccn2)cc([N+](=O)[O-])c1)c1cccc(F)c1` , report its GFP response, % of DMSO.
## Result 95.8

## Task Using the record for Cc1ccc(S(=O)(=O)N2C3C=CC(C3)C2C(=O)O)cc1 (stereo not given) , report its GFP response, % of DMSO.
## Result 97.6

## Task Using the record for `O=C(c1cc([N+](=O)[O-])cc([N+](=O)[O-])c1)N(Cc1nnc(-c2ccccc2Cl)o1)C1CC1` , report its GFP response, % of DMSO.
## Result 103

## Task Using the record for CCN(CC)S(=O)(=O)c1cccc(C(=O)NCC(c2ccccc2)N(C)C)c1 (stereo not given) , report its GFP response, % of DMSO.
## Result 106

## Task Using the record for CCOC(=O)C1=C(c2ccccc2)NC(=S)NC1c1cc([N+](=O)[O-])ccc1OC (stereo not given) , report its GFP response, % of DMSO.
## Result 101
